- Organism: Rattus norvegicus
- protocolText: DrugMatrix - Regimen: Daily Repeat
- Assay type: toxicity, organism-based, Sprague-Dawley
- Parameters: regimen Daily Repeat, gender Male, age 6-8 weeks
- particulars: in vivo, po, 0 mg/kg, 72 h, tissue Plasma, route oral GAVAGE, dose level Control, time 3 day, vehicle 100 % WATER
// reported SODIUM per item
Use MEQ/L as the unit, but write only the number.

C[C@]12C=CC(=O)C=C1CC[C@@H]1[C@@H]2[C@@H](O)C[C@@]2(C)[C@H]1CC[C@]2(O)C(=O)CO: 141.53
NNc1nncc2ccccc12 [HYDRALAZINE]: 140.5
CN1[C@@H]2CC[C@H]1C[C@@H](OC(=O)C(CO)c1ccccc1)C2 (stereo not given in full): 141.54

[ask] Requested read-out: SODIUM. Entry: `Cc1ccc(NC(=O)c2ccc(CN3CCN(C)CC3)cc2)cc1Nc1nccc(-c2cccnc2)n1`
[reply] 143.57

[ask] Please give the result for CC(C)NCC(O)c1ccc(NS(C)(=O)=O)cc1 (stereo not given) too.
[reply] 144.22

* * *

- Organism: Rattus norvegicus
- protocolText: DrugMatrix - Regimen: Daily Repeat
- Assay type: toxicity, organism-based, Sprague-Dawley
- Set-up: regimen Daily Repeat, gender Male, age 6-8 weeks
- particulars: in vivo, po, 0 mg/kg, 120 h, tissue Blood, route oral GAVAGE, dose level Control, time 5 day, vehicle 100 % WATER
Parameter ERYTHROCYTE COUNT: see the listing below.

The cases that follow already have their ERYTHROCYTE COUNT on record.
Cn1c(=O)c2[nH]cnc2n(C)c1=O.O: 5.78 x10E6/uL
CN(C)CCOC(c1ccccc1)c1ccccc1 [DIPHENHYDRAMINE]: 5.88 x10E6/uL
Cc1ccc(NC(=O)c2ccc(CN3CCN(C)CC3)cc2)cc1Nc1nccc(-c2cccnc2)n1: 5.82 x10E6/uL
Oc1cccc(O)c1O: 6.02 x10E6/uL

[ask] Value lookup for ERYTHROCYTE COUNT; key = `C[C@]12C=CC(=O)C=C1CC[C@@H]1[C@@H]2[C@@H](O)C[C@@]2(C)[C@H]1CC[C@]2(O)C(=O)CO`
[reply] 6 x10E6/uL

[ask] Try `CS(=O)(=O)c1ccc([C@@H](O)[C@@H](CO)NC(=O)C(Cl)Cl)cc1` next.
[reply] 5.82 x10E6/uL

* * *

- Organism: Rattus norvegicus
- protocolText: DrugMatrix - Regimen: Daily Repeat
- Type: toxicity, organism-based, Sprague-Dawley
- Design: regimen Daily Repeat, gender Male, age 6-8 weeks
- particulars: in vivo, po, 0 mg/kg, 72 h, tissue Plasma, route oral GAVAGE, dose level Control, time 3 day, vehicle 100 % WATER
# LIPASE per record follows
Use u/L as the unit, but write only the number.

As a guide, the following entries are already answered.
CCN(CC)CCNC(=O)c1cc(S(C)(=O)=O)ccc1OC [TIAPRIDE]: 8.83
Cn1c(=O)c2[nH]cnc2n(C)c1=O.O [THEOPHYLLINE]: 9.33

Here's the next entry for you.
[ask] Query: LIPASE; subject: CC(C)NCC(O)c1ccc(NS(C)(=O)=O)cc1 (stereo not drawn) [SOTALOL]
[reply] 10.17

* * *

- Organism: Rattus norvegicus
- protocolText: DrugMatrix - Regimen: Daily Repeat
- Assay type: toxicity, organism-based, Sprague-Dawley
- Design: regimen Daily Repeat, gender Male, age 6-8 weeks
- particulars: in vivo, po, 0 mg/kg, 72 h, tissue Plasma, route oral GAVAGE, dose level Control, time 3 day, vehicle .5 % CMC
measurementType: ALKALINE PHOSPHATASE (u/L)
Entry rule: numbers only, all in u/L.

Clc1ccccc1CN1CCc2sccc2C1 [TICLOPIDINE]: 391.33
CC(C(=O)O)c1ccc2oc(-c3ccc(Cl)cc3)nc2c1 (stereo not given) [BENOXAPROFEN]: 328.5
NCCCC(O)(P(=O)(O)O)P(=O)(O)O [ALENDRONIC ACID]: 391.33
CC(=O)Oc1ccc(C(c2ccc(OC(C)=O)cc2)c2ccccn2)cc1 [BISACODYL]: 368.33
CCN(CC)CCOc1ccc(/C(=C(/Cl)c2ccccc2)c2ccccc2)cc1 [ENCLOMIPHENE]: 398.83
C[C@H]1O[C@@H](n2cc(F)c(=O)[nH]c2=O)[C@H](O)[C@@H]1O [DOXIFLURIDINE]: 449.5
CN(C/C=C/C#CC(C)(C)C)Cc1cccc2ccccc12 [TERBINAFINE]: 283.83
O=C1C(CC[S+]([O-])c2ccccc2)C(=O)N(c2ccccc2)N1c1ccccc1 (stereo not given) [SULFINPYRAZONE]: 346.83

[ask] If you can, please state the reported ALKALINE PHOSPHATASE value of CNCCC(Oc1ccc(C(F)(F)F)cc1)c1ccccc1 (stereo not given) [FLUOXETINE] .
[reply] 370.17

[ask] // repeat for CN(C)[C@@H]1C(O)=C(C(N)=O)C(=O)[C@@]2(O)C(O)=C3C(=O)c4c(O)ccc(Cl)c4[C@@](C)(O)[C@H]3C[C@@H]12 [CHLORTETRACYCLINE] and report
[reply] 427.67

[ask] And NC1CCN(c2nc3c(cc2F)c(=O)c(C(=O)O)cn3-c2ccc(F)cc2F)C1 (stereo not given) [TOSUFLOXACIN] ?
[reply] 283.83

[ask] Another compound to look at: COC1=C(OC)C(=O)C(CCCCCCCCCCO)=C(C)C1=O [IDEBENONE]
[reply] 449.5

[ask] Moving on to COc1cc2nc(N3CCN(C(=O)c4ccco4)CC3)nc(N)c2cc1OC [PRAZOSIN]
[reply] 346.83

[ask] Also check Cn1c(=O)c2c(ncn2CC(O)CO)n(C)c1=O (stereo not given) [DYPHYLLINE]
[reply] 427.67

[ask] What would you report for COc1ccc(C2C(=O)c3ccccc3C2=O)cc1 [ANISINDIONE] ?
[reply] 391.33
